The values you see were collected from patent US11767305B2.

Target of assay: DAT (Homo sapiens (Human), UniProt Q01959)
Assay method text: hDAT release assay in CHO cells ([3H]dopamine)
Test settings: read-out: EC50 DAT (Mean ± SEM), CHO cells expressing hDAT
Property label: EC50

[[record]]
compound = "CNC(C)Cc1ccc2occc2c1.Cl (stereo not shown)"
reported_value = "459 nM"


* * *

EC50: recorded values
Target of assay: serotonin (5-HT) transporter (SERT) (Rattus norvegicus (Rat), UniProt P31652)
Assay method text: Rat synaptosome SERT [3H]5-HT release assay
Test settings: [3H]5-HT release via SERT EC50 (nM), 5 nM [3H]5-HT
Property label: EC50 (nM)

[[record]]
molecule = "CN[C@@H](C)Cc1ccc2ccoc2c1"
target_of_assay = "serotonin (5-HT) transporter (SERT) (Rattus norvegicus (Rat), UniProt P31652)"
reported_value = 20.6

[[record]]
molecule = "CN[C@H](C)Cc1ccc2ccoc2c1"
target_of_assay = "serotonin (5-HT) transporter (SERT) (Rattus norvegicus (Rat), UniProt P31652)"
reported_value = 112

[[record]]
molecule = "CNC(C)C(=O)c1ccc2ccoc2c1 (single isomer, unassigned; (-)) [(−)-BK-6-MAPB]"
target_of_assay = "serotonin (5-HT) transporter (SERT) (Rattus norvegicus (Rat), UniProt P31652)"
reported_value = 72.2

[[record]]
molecule = "CN[C@@H](C)Cc1ccc2occc2c1"
target_of_assay = "serotonin (5-HT) transporter (SERT) (Rattus norvegicus (Rat), UniProt P31652)"
reported_value = 13

[[record]]
molecule = "CNC(C)C(=O)c1ccc2occc2c1 (single isomer, unassigned; (+)) [(+)-BK-5-MAPB]"
target_of_assay = "serotonin (5-HT) transporter (SERT) (Rattus norvegicus (Rat), UniProt P31652)"
reported_value = 439

[[record]]
molecule = "CC[C@@H](Cc1ccc2occc2c1)NC (stereo in doubt)"
target_of_assay = "serotonin (5-HT) transporter (SERT) (Rattus norvegicus (Rat), UniProt P31652)"
reported_value = 31.2

[[record]]
molecule = "CN[C@H](C)Cc1ccc2occc2c1"
target_of_assay = "serotonin (5-HT) transporter (SERT) (Rattus norvegicus (Rat), UniProt P31652)"
reported_value = 29.3

[[record]]
molecule = "CNC(C)C(=O)c1ccc2occc2c1 (single isomer, unassigned; (-)) [(−)-BK-5-MAPB]"
target_of_assay = "serotonin (5-HT) transporter (SERT) (Rattus norvegicus (Rat), UniProt P31652)"
reported_value = 80

[[record]]
molecule = "CNC(C)Cc1ccc2c(c1)OCO2 (centres unmarked)"
target_of_assay = "serotonin (5-HT) transporter (SERT) (Rattus norvegicus (Rat), UniProt P31652)"
reported_value = 94.3

[[record]]
molecule = "CNC(C)C(=O)c1ccc2ccoc2c1 (single isomer, unassigned; (+)) [(+)-BK-6-MAPB]"
target_of_assay = "serotonin (5-HT) transporter (SERT) (Rattus norvegicus (Rat), UniProt P31652)"
reported_value = 1280

[[record]]
molecule = "CC[C@H](Cc1ccc2occc2c1)NC (stereo in doubt)"
target_of_assay = "serotonin (5-HT) transporter (SERT) (Rattus norvegicus (Rat), UniProt P31652)"
reported_value = 49.5


* * *

IC50: recorded values
Target of assay: human 5-HT transporter (hSERT) (Homo sapiens (Human), UniProt P31645)
Assay method text: Human serotonin transporter  assay ([3H]imipramine radioligand, CHO cells)
Assay type: binding
Test settings: IC50 (appeared close to), lowest concentration too high for accurate estimate
Property label: IC50

[[record]]
compound = "CC[C@@H](Cc1ccc2occc2c1)NC (stereo in doubt)"
property_label = "IC50"
reported_value = "~94.9 nM"

[[record]]
compound = "CC[C@H](Cc1ccc2occc2c1)NC (stereo in doubt)"
property_label = "IC50"
reported_value = "~949 nM"

